B1: TPR t1 (parent)
chain: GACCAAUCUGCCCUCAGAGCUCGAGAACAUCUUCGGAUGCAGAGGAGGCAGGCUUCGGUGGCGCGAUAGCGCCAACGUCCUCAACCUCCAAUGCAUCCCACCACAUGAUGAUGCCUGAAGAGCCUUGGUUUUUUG

Variants of: B1
Test: polymerase ribozyme fitness, log enrichment relative to wild type (log ratio); higher = more active; in vitro selection for triplet polymerase activity
Note that class boundaries on polymerase ribozyme fitness (log ratio) are LOW = under -5, MID = from -5 up to -1, HIGH = -1 and over

Band for GACCAAUCUGCCCUCAGAGCUCGAGAACAUCUUCGGAUGCCGAGGAGGCAGGCUUCGGUGGCGCGAUAGCGCCAACGUCGUCAACCUCCAAUGCAUCCCACCACAUGAUGAUGCCUGAAGGGCCUUGGUUUAUUG [A41C C80G A121G U132A] ?
MID

State the band of GAACAAUCUGCCCUCAGAGCUCGAGAACAUCUUCGGAUGCAGAGGAGGCAGGCUUCGGUGGCGCGAUAGCCCCAACGUGCUCAACCUCCAAUGCAUCCCACCACAUGAUGAUGCCUGAGGAGACUUGGUUUUUUG [C3A G71C C79G A119G C123A]
MID

Sort into band: GACCAAUCUGCCCUCAGAGCUCGAGAACAUCUUCGGAUGCAGAGGAGGCAGGCUUCGGUGGCACGAUAGCGCCAACGUCCUCAUCCUCCAAUGCAUCCCACCACAUGAUGAUGCAUGAAGAGCCGUGGUUUUUUG [G63A A84U C115A U125G]
HIGH

For this variant, which bin applies? GACCAAUCUGCCCGCAGAGCUCGAGAACAUCUUCGGAUGCAGAGGAGGCAGGCUUCGGUGGCGCGAUAGCGCCAACGUCCUCAACCUCCAAUGCAUCCCACCACAUGAUGAUGCCUAAAGAGCCUUGGUUUUUUG [U14G G117A]
MID

Lab log: GACCAAUCUGCCCUCAGAGCUCGAGAACAUCUUCGGAUGCAGAUGAGGCAGGCUUCGGUGGCGCGAUAGCGCCAACGUCCUCAACCUCCAAUGCAUCCCACCACAUGAUGAUGACGGAAGAGCCUUGGUUUUUUG [G44U C114A U116G] — assign polymerase ribozyme fitness (log ratio) category
MID

Which polymerase ribozyme fitness (log ratio) band matches GACCAAUCUGCCCUCAGAGCUCGAGAACAUCUUCCGAUGCAGAGGAGGCAGGCUUCGGUGGCGCGAUAGCGCCAACGUCCUCAACCUCCAAUGCAUCCCACCACAUGAUGAUGUCUGAAGAGCCUUGGUUUUUUG [G35C C114U] ?
LOW

Each variant maps to one class by polymerase ribozyme fitness (log ratio). Which class for GACCAAUCUGCCCUCAGAGCUCGAGAACAUUUUCGGAUGCAGAGGAGGCAGGCUUCGGUGGCGCGAUAGCGCCAACGUCCCCAACCUCCAAUGCAUCCCACCACAUGAUGAUGCCUGAAUAGCCUUGGUUUUUUG [C31U U81C G120U] ?
LOW

Which category fits this record: GACCAAUCUGCCCUCAGAGCUCGAGAACAUCUUCGGUUGCCGAGGAGGCAGGCUUCGGUGGCGAGAUAGCGCCAACGUCCUCAACCUCCAAUGCAUCCCACCACAUGAAGAUGCCUGAAGAGCCUUGUUUUUUUG [A37U A41C C64A U109A G128U]
LOW

Category lookup for the variant GACCAAUCUGCCCUCAGAGCUCGAGAACAUCUUCGGAUGCAAAGGAGGCAGGCUUCGGUGGCGCGAUAGCGCCAACGUCCUCAACCUGCAAUGCAUCCCACCACAUGAUGAUGCCUGAAGAGCCUUGGUUUCUUG [G42A C88G U132C]
MID

Class for GACCAAUCUGCCCUCAGAGCUCGAGAACAUCUUCGGAUGCAGAGGAAGUAGGCUUCGGUGGCGCGAUAGCGCCAACGUCCUCAACCUCCAAUGCAUCCCACCACAUGAUGAUGCCUGAAGAGCCUUGGUUUUUUG [G47A C49U] ?
HIGH

Field: class (polymerase ribozyme fitness (log ratio)) — entry: GACCAAUCUGCCCUCAGAGGUCGAGAACAUCUUCGGAUGCAGAGGAGGCAGGCUUCGGUGGCGCGAUAGCGUCAACGUCCUCAACCUCCAAUGCAUCCCACCACAUGAUGAUGCCUGAAGAGCCUUGGUUUUUUG [C20G C72U]
MID

Into which bin does this variant go? GACCAAUCUGCCCUCAGAGCUCGAGAACAUCUUCGGAUGCAGCGGAGGCAGGCUUCGGUGGCGCGAUAGCGACAACGUCCCCAACCUCCAAUGCAUCCCACCACAUGAUGAUGCCUGAAGAGCCUUGGUUUUUUG [A43C C72A U81C]
MID

Which bin should I file GACCAAUAUGCCCUCAGAGCUCGAGAACAUCUUCGGAUGCAGAGGAGGCAGGCUUCGGUGGCGCGAUACCGCCAACGUCCUCAACCUCCAAUGCAUCCCACCACAUGAUGAUGCCUGAAGAGCCUUGGUUUUUUG [C8A G69C] under?
MID

Into which category would you place GACCAAUCUGCCCUCAGAGCUCGAGAACAUCUUCGGAUGCAGAGGAGGCAGGCUUCGGUGGCGCGAUAGCGCCAACGUCCUCAAGCUCCAAUGCAUCCCACCACAUGAUGAUGCCUGAAGAGACUUGGUUUUUUG [C85G C123A] ?
HIGH

Class label required: GACCAAUCUGCCCUCAGAGCUCGAGAACAUCUUCGGAUGCAGAGGAGGCAGGCUUCGGUGGCGCGAUAGCGCCAACGUCCUCAACCUCCCAUGCAUCCCACCACAUCAUCAUGCCUGAAGAGCCUUGGUUUUUUG [A90C G107C G110C]
LOW

Input GACCAAUCUGCCCUCAGAGCUCGAGAACAUCUUCGGAUGCAGAGGAGGGAGGCUUCGGUGGCGCGAUAGCGUCAACGUCCUCAACCUCCAAUGCAUCCCACCACAUGAUGAUGCCUGAAGAGCCUUGGUUUUUUG [C49G C72U] ; output its category
HIGH

# bin label for GACCAAUCUGCCCUCAGAGCUCGAGAACAUCUUCGGAUGCAGAGGGGGCAGGCUUCGGUGGCGCGAUAGCGCCAACGUACUCAACCUCCAAUGCAUCCCACCACAUGAUGAUGCCUGAAGAGCCUUGGUUUUUUG [A46G C79A]
MID

Hi, small favor: classify GACCAAUCUGCCCUCAGAGCUCGAGAACAUCUUCGGAUGCAGAGGAGGCAGGUUUCGGUGGCGCGAUAGCGCCCACGUCCUCAACCUCCAAUGCAUCCCACCACAUGAUGAUGCCUGAAGAGCCUUGGUUUUUUG [C53U A74C] by its polymerase ribozyme fitness (log ratio) when you get a moment.
HIGH

Returns: class label. Input: GACUAAUCUGCCCUCAGAGCUCGAGAACAUCUUCGGAUGCAGAGGAGGCAGGCUUCGCUGGCGCGAUAGCGCCAACGUCCUCAACCUCCAAUGCAUGCCACCACAUGAUGAUGCCUGAAGAGCCUUGGUUUUUUG [C4U G58C C97G]
MID

Band assignment needed for GGCCAAUCUGCCCUCAGAGCUCGAGAACAUCUUCGGAUGCAGACGAGGCAGGCUUCGGUGGAGCGAUAGCGCCAACGUCCUCAACCUCCAAUGCAUUCCACCACAUGAUGAUGCUUGAAGAGCCUUGGUUUUUUA [A2G G44C C62A C97U C115U G135A] please.
LOW

Just checking, what class would you give GACCAAUCUGCACUCACAGCUCGAGAACAUCUUCGGAUGCAGAGGAGCCAGGCUUCGGUGGCGCGAUAGCGCCAACGUCCUCAACCUCCAAUGCAUCCCACCACAUGAUGAUGCCUGAAGAGCCUUGGUUUUUUG [C12A G17C G48C] here?
LOW

Band assignment needed for GACCAAUCUGCCCUCAGAGAUCGAGAACAUCUUCGGAUGCAGAGGAGGCAGGCUUCGGUGGCGCGAUAGCGCCAACGUCCUCAACCUCUAAUGCAUCCCACCACAUGAUGAUGCCUGAAGAGCCUUGGUAUUUUG [C20A C89U U130A] please.
MID
